Value source: patent US11116771B2

A collection of molecules and their measured MIC
# System: Staphylococcus aureus ATCC 700699
# MEASUREMENT NOTES: MIC by micro-broth dilution, S. aureus ATCC 700699
# Format: cell-based
# SETUP CONDITIONS: Staphylococcus aureus, ATCC700699; ATCC 700699 (48 hours); read-out: MIC95
MEASUREMENT LABEL: MIC (µg/mL)

INSERT INTO results (molecule, value_comparator, readout_value) VALUES
  ('O=C1C2=C(CCN(Cc3ccccc3)C2)N2CCN=C2N1Cc1ccc(C(F)(F)F)cc1 [ONC212]', '=', 12.5),
  ('Cc1ccccc1CN1C2=NCCN2C(=O)C2=C1CCN(Cc1ccccc1)C2 [TIC-10]', '>', 100),
  ('O=C1C2=C(CCN(Cc3ccccc3)C2)N2CCN=C2N1Cc1ccc(F)cc1F [ONC206]', '=', 12.5),
  ('O=C1C2=C(CCN(Cc3ccccc3)C2)N2CCN=C2N1Cc1ccc(F)c(F)c1 [ONC213]', '=', 12.5),
  ('COc1cccc(OC)c1C(=O)N[C@@H]1C(=O)N2[C@@H]1SC(C)(C)[C@@H]2C(=O)O [Methicillin, reference compound]', '>', 100);
